# measurement.description: Compound was tested for anticonvulsant activity in male mice by pentylenetetrazole (80 mg/kg, sc) induced seizure test.; Protective index = TD50/ED50
# Format: ADME, organism-based
# measurement.context: mouse, in vivo, read-out: PI
Exercise: state measured selectivity ratio for each of the molecules provided.
In your answer, state the number alone without any accompanying words.

Incoming: Given the entry "O=C1C[C@@H](NC(=O)OCc2ccccc2)C(=O)N1" , report its measured selectivity ratio.
Outgoing: 1.6

Incoming: Given the entry "CN1C(=O)C[C@@H](NC(=O)OCc2ccccc2)C1=O" , report its measured selectivity ratio.
Outgoing: 2

Incoming: Given the entry "CN1C(=O)CC[C@H](NC(=O)OCc2ccccc2)C1=O" , report its measured selectivity ratio.
Outgoing: 5

Incoming: Given the entry CCC1(C)CC(=O)NC1=O (stereo unspecified) [ETHOSUXIMIDE] , report its measured selectivity ratio.
Outgoing: 3.4

Incoming: Given the entry "O=C1C[C@H](NC(=O)OCc2ccccc2)C(=O)N1" , report its measured selectivity ratio.
Outgoing: 2.1

Incoming: Given the entry "O=C1CC[C@H](NC(=O)OCc2ccccc2)C(=O)N1" , report its measured selectivity ratio.
Outgoing: 3.1

Incoming: Given the entry CN1C(=O)OC(C)(C)C1=O [TRIMETHADIONE] , report its measured selectivity ratio.
Outgoing: 4.3

Incoming: Given the entry "CN1C(=O)CC[C@@H](NC(=O)OCc2ccccc2)C1=O" , report its measured selectivity ratio.
Outgoing: 4.9

Incoming: Given the entry CN1C(=O)CC(C)(c2ccccc2)C1=O (stereo unspecified) [METHSUXIMIDE] , report its measured selectivity ratio.
Outgoing: 3.7

Incoming: Given the entry "O=C1CC[C@@H](NC(=O)OCc2ccccc2)C(=O)N1" , report its measured selectivity ratio.
Outgoing: 2.6

Incoming: Given the entry "CN1C(=O)C[C@H](NC(=O)OCc2ccccc2)C1=O" , report its measured selectivity ratio.
Outgoing: 1

----------
# Organism: Mus musculus
# measurement.description: Compound was tested for anticonvulsant activity in male mice using maximal electric shock seizure test.
# Format: functional
Exam item: assign T to entries whose ED50 is below 50 mg/kg and F to entries at or above 50 mg/kg. Note that a value of exactly 50 mg/kg receives F.

Incoming: Find out if reported ED50 for "CN1C(=O)CC[C@H](NC(=O)OCc2ccccc2)C1=O" is less than 50 mg/kg
Outgoing: T

Incoming: Find out if reported ED50 for CN1C(=O)CC(C)(c2ccccc2)C1=O (configuration not stated) [METHSUXIMIDE] is less than 50 mg/kg
Outgoing: T

Incoming: Find out if reported ED50 for "CN1C(=O)C[C@@H](NC(=O)OCc2ccccc2)C1=O" is less than 50 mg/kg
Outgoing: F

Incoming: Find out if reported ED50 for "O=C1C[C@@H](NC(=O)OCc2ccccc2)C(=O)N1" is less than 50 mg/kg
Outgoing: F

Incoming: Find out if reported ED50 for CCCC(CCC)C(=O)O [VALPROIC ACID] is less than 50 mg/kg
Outgoing: F

Incoming: Find out if reported ED50 for CCC1(c2ccccc2)C(=O)NC(=O)NC1=O [PHENOBARBITAL] is less than 50 mg/kg
Outgoing: T

Incoming: Find out if reported ED50 for "O=C1CC[C@H](NC(=O)OCc2ccccc2)C(=O)N1" is less than 50 mg/kg
Outgoing: T

Incoming: Find out if reported ED50 for CN1C(=O)OC(C)(C)C1=O [TRIMETHADIONE] is less than 50 mg/kg
Outgoing: F

Incoming: Find out if reported ED50 for "CN1C(=O)C[C@H](NC(=O)OCc2ccccc2)C1=O" is less than 50 mg/kg
Outgoing: F

Incoming: Find out if reported ED50 for "CN1C(=O)CC[C@@H](NC(=O)OCc2ccccc2)C1=O" is less than 50 mg/kg
Outgoing: T

Incoming: Find out if reported ED50 for "O=C1CC[C@@H](NC(=O)OCc2ccccc2)C(=O)N1" is less than 50 mg/kg
Outgoing: F

Incoming: Find out if reported ED50 for "O=C1C[C@H](NC(=O)OCc2ccccc2)C(=O)N1" is less than 50 mg/kg
Outgoing: F
